Where these numbers come from: PubChem BioAssay AID256

Measured T/C, listed per entry for reference.
System: CD2F1 mice, L1210 leukemia ip, survival T/C
Assay: NCI In Vivo Anticancer Drug Screen. Data for tumor model L1210 Leukemia (intraperitoneal) in CD2F1 (CDF1) mice
Details: endpoint: mean survival time; dose: 200.0 mg/kg/injection; schedule: Q04DX003 (ip); vehicle: saline with Tween-80; higher = longer survival
Experimental: The antitumor activity of compounds was measured in mice bearing transplantable tumors. Survival or tumor size were measured and the results are expressed as the measurement made in the treated group (T) divided by the measurement made in the vehicle treated control group (C). The tumor model used in this assay is L1210 Leukemia (intraperitoneal) in CD2F1 (CDF1) mice
Toxic doses and inconclusive results are not listed.

{"columns": ["molecule", "tested.system", "T/C"],
 "data": [
  ["CC1=CCC(C(C)(C)c2ccc(O)cc2)CC1 (stereo not drawn)", "CD2F1 mice, L1210 leukemia ip, survival T/C", "104 % of control"],
  ["COP(=O)(OC)C(=O)c1cccc2ccccc12", "CD2F1 mice, L1210 leukemia ip, survival T/C", "93 % of control"],
  ["COc1ccc2c(c1C)Cc1ccccc1C2=O", "CD2F1 mice, L1210 leukemia ip, survival T/C", "89 % of control"],
  ["CC(=O)C1CCC2c3cc4c(c(C)c3CCC12C)CCC(OC(=O)C1CCCCC1)C4 (stereo not drawn)", "CD2F1 mice, L1210 leukemia ip, survival T/C", "101 % of control"],
  ["CSc1nc(C)cc(Cl)n1", "CD2F1 mice, L1210 leukemia ip, survival T/C", "97 % of control"],
  ["COc1ccc(OC)c(C2N(Cc3ccccc3N(C)C)CCCN2Cc2ccccc2N(C)C)c1", "CD2F1 mice, L1210 leukemia ip, survival T/C", "88 % of control"],
  ["CC(C)(C)n1cc(C(=O)c2ccccc2)cc1-c1ccccc1", "CD2F1 mice, L1210 leukemia ip, survival T/C", "92 % of control"],
  ["O=C([O-])c1ccccc1[I+]c1ccccc1", "CD2F1 mice, L1210 leukemia ip, survival T/C", "101 % of control"],
  ["CC(=O)OC1CCC2(C)C(C1)C(=O)OC1C2CCC2(C)C(C(C)CCCC(C)C)CCC12 (stereo not drawn)", "CD2F1 mice, L1210 leukemia ip, survival T/C", "94 % of control"],
  ["COc1ccc([Se][Se]c2ccc(OC)cc2NC(C)=O)c(NC(C)=O)c1", "CD2F1 mice, L1210 leukemia ip, survival T/C", "87 % of control"],
  ["O=C1N(CCO)CNC1(c1ccccc1)c1ccccc1", "CD2F1 mice, L1210 leukemia ip, survival T/C", "98 % of control"],
  ["COc1ccccc1OC(=O)CCl", "CD2F1 mice, L1210 leukemia ip, survival T/C", "101 % of control"],
  ["CC(=O)OCc1ccc(Cl)cc1", "CD2F1 mice, L1210 leukemia ip, survival T/C", "96 % of control"],
  ["CCCCCCCC(=O)Oc1ccc(N=Nc2ccc(OCC)cc2)cc1", "CD2F1 mice, L1210 leukemia ip, survival T/C", "95 % of control"],
  ["CCc1ccc(NC(=O)c2ccccc2C(=O)O)cc1", "CD2F1 mice, L1210 leukemia ip, survival T/C", "97 % of control"],
  ["[NH-]NC(=S)[S-].[NH-]NC(=S)[S-].[Ni]", "CD2F1 mice, L1210 leukemia ip, survival T/C", "102 % of control"],
  ["CCCn1c(O)c(C=N)c(=O)n(CCC)c1=O", "CD2F1 mice, L1210 leukemia ip, survival T/C", "97 % of control"],
  ["O=C1CCC(=O)N1CCC1=NCCc2ccccc21", "CD2F1 mice, L1210 leukemia ip, survival T/C", "96 % of control"]
]}
